- assay overview: Retention time of the compound by HPLC analysis
- Type: physicochemical
readout kind: Retention_time (min)
Numbers only, in min.

Some solved entries appear below for comparison.
smiles input	numeric readout
CCCCCCCCCCCCCCN(Cc1ccccc1)C(=O)[C@@H](N)CCCCN.O=C(O)C(F)(F)F.O=C(O)C(F)(F)F	15.8
CCCCCCCCN(Cc1cccc2ccccc12)C(=O)[C@@H](N)CCCCN.O=C(O)C(F)(F)F.O=C(O)C(F)(F)F	12.9
CCCCCCN(Cc1cccc2ccccc12)C(=O)[C@@H](N)CCCCN.O=C(O)C(F)(F)F.O=C(O)C(F)(F)F	11.8

Each of the following entries comes with a recorded value; kindly state Retention_time for each.
1. CCCCCCCCCCN(Cc1c2ccccc2c(Cl)c2ccccc12)C(=O)[C@@H](N)CCCCN.O=C(O)C(F)(F)F.O=C(O)C(F)(F)F
2. CCCCCCN(Cc1ccccc1)C(=O)[C@@H](N)CCCCN.O=C(O)C(F)(F)F.O=C(O)C(F)(F)F
3. CCCCN(Cc1cccc2ccccc12)C(=O)[C@@H](N)CCCCN.O=C(O)C(F)(F)F.O=C(O)C(F)(F)F
4. CCCCCCCCCCN(Cc1cccc2ccccc12)C(=O)[C@@H](N)CCCCN.O=C(O)C(F)(F)F.O=C(O)C(F)(F)F
5. CCCCCCN(Cc1c2ccccc2c(Cl)c2ccccc12)C(=O)[C@@H](N)CCCCN.O=C(O)C(F)(F)F.O=C(O)C(F)(F)F

1: 15.6; 2: 10.6; 3: 10.8; 4: 14.2; 5: 13.6

Each of the following entries comes with a recorded value; kindly state Retention_time for each.
1. CCCCN(Cc1c2ccccc2c(Cl)c2ccccc12)C(=O)[C@@H](N)CCCCN.O=C(O)C(F)(F)F.O=C(O)C(F)(F)F
2. CCCCCCCCCCCCN(Cc1cccc2ccccc12)C(=O)[C@@H](N)CCCCN.O=C(O)C(F)(F)F.O=C(O)C(F)(F)F
3. CCCCCCCCN(Cc1c2ccccc2c(Cl)c2ccccc12)C(=O)[C@@H](N)CCCCN.O=C(O)C(F)(F)F.O=C(O)C(F)(F)F
4. CCCCCCCCCCN(Cc1ccccc1)C(=O)[C@@H](N)CCCCN.O=C(O)C(F)(F)F.O=C(O)C(F)(F)F

1: 12.4; 2: 15.1; 3: 14.6; 4: 13.4
